test system: MDR1; assay: Apparent permeability across basolateral side to apical side in MDCKII-MDR1 cells at 1 uM by LC/MS/MS analysis; type: ADME, cell-based, Canis lupus familiaris; conditions: dog, MDCK-MDR1
test_readout: Papp B→A at 1 µM (×10⁻⁶ cm/s)
Quick reminder: number only, in ×10⁻⁶ cm/s, skip the unit.

IN: Note down Papp B→A at 1 µM recorded for `COc1cc2c(cc1OC)CN(CCc1ccc(-n3nnc(-c4cc(OC)c(OC)cc4NC(=O)c4cc(=O)c5ccccc5o4)n3)cc1)CC2`
OUT: 0.0049

###

tested on: MDR1; experiment: Efflux ratio of apparent permeability across apical to basolateral to basolateral to apical membrane membrane in MDCKII-MDR1at 3 uM in presence of valspodar; format: ADME, cell-based, Canis lupus familiaris; conditions: dog, MDCK-MDR1, with valspodar (concentration not stated)
test_readout: efflux ratio at 3 µM

IN: Note down efflux ratio at 3 µM recorded for `COc1cc2c(cc1OC)CN(CCc1ccc(-n3nnc(-c4cc(Oc5cccnc5)ccc4NC(=O)c4cc(=O)c5ccccc5o4)n3)cc1)CC2`
OUT: 0.093
